Entries and their TGI values follow.
Test system: A549 NSCLC
procedure-summary: NCI tumour cell line growth inhibition, 48 h
experimental-readout: TGI

{"columns": ["compound", "measurement"],
 "data": [
  ["O/N=C1\\CCCCC1C(NO)c1ccccc1 (configuration not stated)", "> 100 µM"],
  ["NC(=O)c1cc(I)ccc1NC(=O)/C=C/c1ccccc1", "> 100 µM"],
  ["COc1nc(=O)n(C2C=CC(=O)O2)cc1F (configuration not stated)", "87.3 µM"],
  ["O=[N+]([O-])c1cccnc1N=Nc1c(O)[nH]c2ccccc12", "47.7 µM"],
  ["COc1cc(OC)c(OC)cc1/C=N/NC(=O)N/N=C/c1cc(OC)c(OC)cc1OC", "> 100 µM"],
  ["O=C1N(Cc2ccccc2)C2CSCC2N1Cc1ccccc1 (configuration not stated)", "> 100 µM"],
  ["CCCCOCCOC1=C(Cl)C(=O)c2c(O)ccc(O)c2C1=O", "4.64 µM"],
  ["COc1cc(/C=C2\\CCCCC3=C2N=C2SC(C)=CN2C3c2cc(OC)c(OC)c(OC)c2)cc(OC)c1OC (configuration not stated)", "> 100 µM"],
  ["CCCN(CCC)c1c([N+](=O)[O-])cc(C(=O)N(CC)CC)cc1[N+](=O)[O-]", "38.1 µM"],
  ["CCOC(=O)/C(C(C)=O)=C(\\OC(C)=O)c1ccncc1C(=O)O", "> 100 µM"],
  ["CSc1csc(-c2ccc(-c3ccc(-c4cc(SC)cs4)s3)s2)c1", "> 100 µM"],
  ["CCOC(=O)c1c2cccccc-2nc1Nc1cccc2c(C)ccnc12", "> 10 µM"],
  ["CC(C)N1CCN(c2ccc(OCC3COC(Cn4cncn4)(c4ccc(Cl)cc4Cl)O3)cc2)CC1 (configuration not stated)", "> 52 µM"],
  ["O=C(NCCCl)O/N=C/c1cccnc1", "> 100 µM"],
  ["O=C1CSC2(CC(/C=C/c3cccs3)=NN2c2cccc(S(=O)(=O)O)c2)N1c1nc2ccccc2s1 (configuration not stated)", "> 100 µM"],
  ["O=C1C=C(c2c(O)ccc3ccccc23)c2cc(O)ccc2C1=O", "36.7 µM"],
  ["CCOC(=O)Nc1c(C)nc2ccccn12", "> 100 µM"]
]}

The reported numbers originate from PubChem BioAssay (NCI).
